- Measured On: T1, GST (Pierce) (UniProt P08515 1-218 = GST, limits assumed)
- T1 construct: control for the GST part of the fusion protein; also called GST protein; Glutathione-S-transferase
- Assay: array SPR, Ab immobilised
Experimental Endpoint: binding result

anti-TMEM106B antibody TM-45 (antibody, V domains shown) VH: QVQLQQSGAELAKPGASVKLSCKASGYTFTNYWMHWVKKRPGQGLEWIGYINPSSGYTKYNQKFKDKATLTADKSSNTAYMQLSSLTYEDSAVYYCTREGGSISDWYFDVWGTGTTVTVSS VL: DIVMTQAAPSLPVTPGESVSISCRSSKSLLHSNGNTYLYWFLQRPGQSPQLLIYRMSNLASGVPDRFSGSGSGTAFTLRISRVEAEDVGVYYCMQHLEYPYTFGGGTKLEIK	no binding
anti-TMEM106B antibody TM-34 (antibody, V domains shown) VH: EVQLVESGGGLVKPGGSLKLSCAASGFSFSDSGMDWVRQAPEKGLEWFAYISSGSSTTHYADTVKGRFIISRDNAKNTLFLQMTSLRSEDTAMYYCVRRDGNYWYFDVWGTGTTVTVSS VL: QIVLSQSPVILSASPGEKVTMTCRATSSVTYMHWYQLKPGSSPKPWIYATSNLASGVPARFSGSGSGTSYSLTISRVEAEDAATYYCQQWSSNPYTFGGGTKLEIK	no binding

Source listed as patent US20230303681A1.
